Test protocol: physchem
Experimental setup: 66% dimethylformamide-water, pH 7.7, pK'a1
Recorded metric: pKa

Record NC(=O)OCC1=C(C(=O)O)N2C(=O)C(NC(=O)CCCC(N)C(=O)O)[C@H]2SC1 (stereo partly shown) [A16886II] , field pKa: 4.4

====

Test protocol: physchem
Experimental setup: 66% dimethylformamide-water, pH 6.5, pK'a1
Recorded metric: pKa
One number for each entry.

Record COC1(NC(=O)CCCC(N)C(=O)O)C(=O)N2C(C(=O)O)=C(COC(N)=O)CS[C@@H]21 (stereo partly shown) [A16886I] , field pKa: 4.1

====

Test protocol: physchem
Experimental setup: 66% dimethylformamide-water, pH 6.5, pK'a4
Recorded metric: pKa
Numbers only.

Record COC1(NC(=O)CCCC(N)C(=O)O)C(=O)N2C(C(=O)O)=C(COC(N)=O)CS[C@@H]21 (stereo partly shown) [A16886I] , field pKa: 10.5

====

Test protocol: physchem
Experimental setup: 66% dimethylformamide-water, pH 6.8, pK'a4
Recorded metric: pKa

Record NC(=O)OCC1=C(C(=O)O)N2C(=O)C(NC(=O)CCCC(N)C(=O)O)[C@H]2SC1 (stereo partly shown) [A16886II] , field pKa: 10.5

====

Test protocol: physchem
Experimental setup: 66% dimethylformamide-water, pH 6.8, pK'a1
Recorded metric: pKa
Numbers only.

Record NC(=O)OCC1=C(C(=O)O)N2C(=O)C(NC(=O)CCCC(N)C(=O)O)[C@H]2SC1 (stereo partly shown) [A16886II] , field pKa: 4
